Reported Potency values for a set of compounds
Experiment: qHTS RealTime-Glo MT Cell Viability Assay in HEK293 cells - 24 hour (AID 1224886); also: potency is read from the fitted curve at half-maximal effect; nearly all actives have a fitted effect of over 50% in size
Conditions: RealTime-Glo luminescence; series mostly up to 76.8 µM
Inconclusive results are not listed. Calls of active or inactive are those of the source. Calls follow the shape of the dose curve; as a rule, active = well fitted cell-killing curve with a large enough effect in the repeat runs; inconclusive = weak or mixed curves, or effect the other way; inactive = flat fitted curve, though single readings scatter.

Below, 2 compounds whose answers are already recorded.
COc1cc(N)c(Cl)cc1C(=O)NC1CCN(Cc2ccccc2)CC1	19 µM (active)
Cc1nc(-c2ccccn2)ncc1C(=O)Nn1cc(C)c2cc(F)ccc21	1.55 µM (active)

Q: Can you look up the measured Potency of CCc1cc2cc(OC)c(OC)cc2c(Cc2ccccc2)n1 for me?
Result: 16.9 µM (active)

Q: Can you look up the measured Potency of CC1=C2[C@H](/C=C(\C)C(=O)O)CC[C@@H](C)[C@H]2CC1 for me?
Result: 36 µM (active)

Q: Can you look up the measured Potency of CC[C@H]1CC[C@H](NCc2cc3c(cc2OC)[C@H]2C[C@H]2C(=O)N3C)[C@H](c2ccccc2)N1 for me?
Result: 21.9 µM (active)

====

Target: Voltage-gated inwardly rectifying potassium channel KCNH2 (Homo sapiens)
Assay: Human Ether-a-go-go-Related Gene (hERG) channel small molecule antagonists: fluorescence cell-based qHTS assay (AID 1671200);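 also: hERG-expressing U2OS cells given a thallium stimulus after FluxOR II dye loading; % is scaled to controls: 0 for no effect and ±100 for the full control effect; nearly all actives have a fitted effect of over 50% in size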
Conditions: hERG-U2OS cells, FluxOR thallium flux fluorescence; series mostly up to 76.8 µM
Inconclusive results are not listed. Activity calls are given as the source filed them. The call rests on the fitted dose curve; in most records, active means well fitted inhibition curve with a large enough effect in the repeat runs; inconclusive means weak or mixed curves; inactive means flat fitted curve, though single readings scatter.
Experimental readout: outcome

Below, 5 molecules whose answers are already recorded.
COc1ccc(Nc2ccc(OC)cc2)cc1	inactive
CCCCCCCCCC#N	inactive
CCCCCCOc1ccc(N)cc1	inactive
CCOC(=O)c1ccccc1O	inactive
COc1ccccc1OCC(O)COC(N)=O (configuration not stated)	inactive

Q: Can you look up the measured outcome of CC1=C2[C@H](/C=C(\C)C(=O)O)CC[C@@H](C)[C@H]2CC1 for me?
Result: inactive

Q: Can you look up the measured outcome of NNS(=O)(=O)c1ccc(Oc2ccc(S(=O)(=O)NN)cc2)cc1 for me?
Result: inactive

====

Test: qHTS assay to test for compound auto fluorescence at 535 nm (green) in HepG2 cells (AID 720675); also: % is scaled to controls: 0 for no effect and ±100 for the full control effect
Settings: green autofluorescence 485/535 nm, 1 h; series mostly up to 91.3 µM
Excerpt: National Center for Advancing Translational Sciences [NCATS] NIH Chemical Genomics Center [NCGC] U.S. Environmental Protection Agency [EPA] National Institutes of Environmental Health Sciences [NIEHS] National Toxicology Program [NTP] U.S. Food and Drug Administration [FDA] Compound auto fluorescence often interferes with screening of the compound library against various biological targets and signaling pathways. Some of these compounds may have fluorophoric properties. […]
Calls of active or inactive are those of the source. Calls follow the shape of the dose curve; as a rule, active = well fitted curve in the direction sought with a large enough effect in the repeat runs; inconclusive = weak or mixed curves; inactive = flat fitted curve, though single readings scatter.
Experimental readout: fluorescence, % of fluorescein control

c1ccc(CN(CC2=NCCN2)c2ccccc2)cc1	inactive
CN1CCN(c2c(F)cc3c(=O)c(C(=O)O)cn(CCF)c3c2F)CC1	inactive
Cc1c(C(=O)NCCO)[n+](=O)c2ccccc2n1[O-]	inactive
ClC(Cl)Cl	inactive
O=c1[nH]cnc2c1ncn2[C@@H]1O[C@H](CO)[C@@H](O)[C@H]1O	inactive
COc1ccc(S(=O)(=O)Nc2nnc(CC(C)C)s2)cc1	inactive
O=c1oc2c(O)c(O)cc3c(=O)oc4c(O)c(O)cc1c4c23	inactive
NNS(=O)(=O)c1ccc(Oc2ccc(S(=O)(=O)NN)cc2)cc1	inactive

Q: Can you look up the measured fluorescence, % of fluorescein control of CCOC(=O)c1ccccc1O for me?
Result: inactive

Q: Can you look up the measured fluorescence, % of fluorescein control of Cc1ncc(CO)c(CN)c1O for me?
Result: inactive

Q: Can you look up the measured fluorescence, % of fluorescein control of CCOc1ccc(OCC)c(Cl)c1 for me?
Result: inactive

Q: Can you look up the measured fluorescence, % of fluorescein control of CC(C)CCCCCCc1ccc(OCCOCCO)cc1 for me?
Result: inactive

Q: Can you look up the measured fluorescence, % of fluorescein control of CCc1cc(Cl)c(OC)c(C(=O)NC[C@@H]2CCCN2CC)c1O for me?
Result: inactive

====

Assay: qHTS assay to test for compound auto fluorescence at 590 nm (red) in HepG2 cell free culture (AID 720684); also: % is scaled to controls: 0 for no effect and ±100 for the full control effect
Conditions: cell-free medium autofluorescence, red 540/590 nm; series mostly up to 91.3 µM
The source made the active and inactive calls. Calls come from the whole dose curve; as a rule, active = well fitted curve in the direction sought with a large enough effect in the repeat runs; inconclusive = weak or mixed curves; inactive = flat fitted curve, though single readings scatter.
Experimental readout: fluorescence, % of Rose Bengal

Below, 5 compounds whose answers are already recorded.
O=C(O)[C@@H](O)[C@H](O)[C@H](O)[C@@H](O)C(=O)O	inactive
CCC(=O)O[C@]1(C(=O)SCF)[C@H](C)C[C@H]2[C@@H]3C[C@H](F)C4=CC(=O)C=C[C@]4(C)[C@@]3(F)[C@@H](O)C[C@@]21C	0.622% [at 18.6 µM] (inactive)
Cc1c(C(=O)NCCO)[n+](=O)c2ccccc2n1[O-]	inactive
CO[Si](C)(C)OC	inactive
CCOC(=O)C(Br)c1ccccc1 (configuration not stated)	inactive

Q: Can you look up the measured fluorescence, % of Rose Bengal of CCCc1c2oc(C(=O)O)cc(=O)c2cc2c(=O)cc(C(=O)O)n(CC)c12 for me?
Result: inactive

Q: Can you look up the measured fluorescence, % of Rose Bengal of CCCCCCCCCC/C=C/C#N for me?
Result: inactive

====

Experiment: qHTS assay to identify small molecule antagonists of the estrogen related receptor (ERR) signaling pathway from Tox21 library - cell viability counter screen (AID 1224834); also: % is scaled to controls: 0 for no effect and ±100 for the full control effect; nearly all actives have a fitted effect of over 30% in size
Settings: ERR reporter cells viability, CellTiter-Fluor, 17.5 h; series mostly up to 92.4 µM
Records with an inconclusive call do not appear. The source made the active and inactive calls. The call rests on the fitted dose curve; in most records, active means well fitted cell-killing curve with a large enough effect in the repeat runs; inconclusive means weak or mixed curves; inactive means flat fitted curve, though single readings scatter.
Experimental readout: viability change, negative = cytotoxic

Below, 10 compounds whose answers are already recorded.
CCCCC(CC)COC(=O)COc1cc(Cl)c(Cl)cc1Cl (centres undefined)	inactive
C=CCCCCCCCCO	inactive
Cc1ccsc1C(=CCCN1CCC[C@@H](C(=O)O)C1)c1sccc1C	inactive
CC(C)NCC(O)COc1ccc(CCOCC2CC2)cc1 (centres undefined)	inactive
CC(C)c1ccccc1	inactive
CCOc1ccc(OCC)c(Cl)c1	inactive
CN1CCN(N)CC1	inactive
CCCCN1C[C@H](O)[C@@H](O)[C@H](O)[C@H]1CO	inactive
CS(=O)(=O)c1ccc([C@@H](O)[C@@H](CF)NC(=O)C(Cl)Cl)cc1	inactive
O=C(O)c1ccccc1Nc1cc(Cl)ccc1C(=O)O	-1.64% [at 19 µM] (inactive)

Q: Can you look up the measured viability change, negative = cytotoxic of CC(C)(C)c1cccc(O)c1 for me?
Result: inactive

Q: Can you look up the measured viability change, negative = cytotoxic of CC(=O)OC(C)OC(C)=O for me?
Result: inactive

Q: Can you look up the measured viability change, negative = cytotoxic of CO[Si](C)(C)OC for me?
Result: inactive

Q: Can you look up the measured viability change, negative = cytotoxic of Cc1ccc([N+](=O)[O-])cc1Cl for me?
Result: inactive

====

Molecular target: Thyrotropin receptor (Homo sapiens) (UniProt P16473)
Sequence (P16473 whole entry, looked up): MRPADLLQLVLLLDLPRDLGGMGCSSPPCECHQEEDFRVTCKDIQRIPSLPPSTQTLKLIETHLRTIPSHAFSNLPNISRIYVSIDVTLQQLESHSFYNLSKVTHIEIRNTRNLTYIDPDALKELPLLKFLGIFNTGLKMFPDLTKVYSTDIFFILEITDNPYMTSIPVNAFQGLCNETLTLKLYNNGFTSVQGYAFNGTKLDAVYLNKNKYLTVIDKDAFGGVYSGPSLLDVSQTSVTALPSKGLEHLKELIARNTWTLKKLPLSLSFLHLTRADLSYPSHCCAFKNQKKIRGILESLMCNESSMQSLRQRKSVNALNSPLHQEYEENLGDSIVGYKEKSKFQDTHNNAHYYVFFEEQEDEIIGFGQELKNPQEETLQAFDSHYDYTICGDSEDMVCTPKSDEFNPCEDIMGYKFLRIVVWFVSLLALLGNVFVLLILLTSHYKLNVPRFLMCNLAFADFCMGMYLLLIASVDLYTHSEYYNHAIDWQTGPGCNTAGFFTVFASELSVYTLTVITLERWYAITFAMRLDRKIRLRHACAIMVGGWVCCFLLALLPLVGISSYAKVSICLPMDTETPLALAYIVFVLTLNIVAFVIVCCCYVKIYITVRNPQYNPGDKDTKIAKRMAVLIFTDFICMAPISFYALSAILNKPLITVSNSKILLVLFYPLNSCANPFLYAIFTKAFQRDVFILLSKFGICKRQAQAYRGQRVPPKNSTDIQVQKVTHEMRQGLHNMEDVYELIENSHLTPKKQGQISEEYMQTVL
Experiment: qHTS assay to identify small molecule agonists of the thyroid stimulating hormone receptor (TSHR) signaling pathway (AID 1224843); also: % is scaled to controls: 0 for no effect and ±100 for the full control effect; nearly all actives have a fitted effect of over 45% in size
Conditions: TSHR-HEK293 cells, cAMP HTRF, agonist mode, 30 min; series mostly up to 92.4 µM
Results filed as inconclusive are left out. Active and inactive are the calls of the source. Calls come from the whole dose curve.
Experimental readout: activation

Below, 4 compounds whose answers are already recorded.
COc1cc(N)c(Cl)cc1C(=O)NC1CCN(Cc2ccccc2)CC1	inactive
OCc1ccccc1O	inactive
Cc1c(N)cccc1N	inactive
CCCCCCCCc1ccc(S(=O)(=O)O)cc1	inactive

Q: Can you look up the measured activation of CC1(C)O[C@@H]2C[C@H]3[C@@H]4CCC5=CC(=O)CC[C@]5(C)[C@@]4(F)[C@@H](O)C[C@]3(C)[C@]2(C(=O)CCl)O1 for me?
Result: inactive

Q: Can you look up the measured activation of CCOC(=O)[C@H](CCc1ccccc1)N[C@@H](C)C(=O)N1Cc2cc(OC)c(OC)cc2C[C@H]1C(=O)O for me?
Result: inactive

Q: Can you look up the measured activation of O=Cc1ccc(F)c(Br)c1 for me?
Result: inactive

Q: Can you look up the measured activation of O=C(O)c1cccc(Cl)c1Cl for me?
Result: inactive

Q: Can you look up the measured activation of CN1CCN(c2c(F)cc3c(=O)c(C(=O)O)cn4c3c2SCC4)CC1 for me?
Result: inactive

Q: Can you look up the measured activation of CCN(CC)CCNC(=O)COc1ccc(Cl)cc1 for me?
Result: inactive

Q: Can you look up the measured activation of CCCCCCCOC(=O)CCC for me?
Result: inactive

Q: Can you look up the measured activation of CCCCCCC for me?
Result: inactive

Q: Can you look up the measured activation of CN1CCN(N)CC1 for me?
Result: inactive
